- Test system: HT-29
- protocol: NCI tumour cell line growth inhibition, 48 h
Active and inactive are the calls of the source. Rule as the data show it: active = GI50 up to about 1.1 µM and inactive = higher.
parameter_measured: GI50

Worked examples follow.
• O=C(CC(NC(=O)C(F)(F)F)C(=O)O)OCc1ccccc1 (configuration not stated) = > 100 µM (inactive)
• N#Cc1sc2c(c1OC(=O)c1ccco1)c(=O)n(-c1ccccc1)c(=S)n2-c1ccccc1 = 32.9 µM (inactive)
• CNc1c2c(c3nc4ccccc4c4c3c1N=C4)NCCC2=O [PLAKINIDINE A] = 2.23 µM (inactive)
• CC(C)Cc1ccc(C(C)CC2=CCC(CN(C)C)C2=O)cc1 (configuration not stated) = 6.38 µM (inactive)
• CC(C)(C)OC(=O)NCC(c1c[nH]c2ccccc12)c1c[nH]c2ccccc12 = 15.1 µM (inactive)
• CC(C)(C)[C@H]1CCC2(OCCO2)[C@](O)(CCCO)C1 = > 100 µM (inactive)
• COC(=O)C1Cc2c(n(C)c3ccccc23)C(c2ccccc2)N1 (configuration not stated) = 18.9 µM (inactive)
• O=C(O)c1cccc2cccc(-c3c4ccc(=O)cc-4oc4cc(O)ccc34)c12 = > 100 µM (inactive)

input: Give GI50 for O=C(N/N=C/c1ccc(Cl)cc1)c1ccccc1Nc1ccccc1C(=O)N/N=C/c1ccc(Cl)cc1
output: > 100 µM (inactive)

input: Please give the documented GI50 of CC1=CCC(O)C=CC(C)C(O)C(C)C=C(C)C(=O)c2c(O)c(C)cc3c2C(=O)C(N)=C(NC(=O)/C=C\C=C/C=CC(C)C(O)CC1=O)C3=O (configuration not stated)
output: > 100 µM (inactive)

input: Indicate the recorded GI50 value for this molecule: O=C(Nc1ccc(Cl)cc1C(F)(F)F)C(=O)C1CCCS1(=O)=O (configuration not stated)
output: > 100 µM (inactive)

input: Supply measured GI50 of Cc1c2c(cc3c1C(=O)C(O)=C([C@@H](C)CO)C3=O)C(C)(C)CCC2 in your reply.
output: 15.8 µM (inactive)

input: Tell me its GI50 given CC(C)(CN1CCCCC1)C(=O)CC(SCCN)c1ccc(Cl)cc1 (configuration not stated) as the entry.
output: 1.95 µM (inactive)

input: Fill in reported GI50 for this entry: Cc1nc2c(o1)/C(=N\c1ccccc1)c1ccccc1C2=O
output: 18.7 µM (inactive)

input: Item COc1ccc(/C=C/c2cc(O)cc(OC)c2)cc1 : provide GI50
output: > 100 µM (inactive)

input: Name the recorded GI50 of the item COc1cc2c(cc1OC)-c1cc3ccc(OC)c(OC)c3c[n+]1CC2 [PALMATINE CHLORIDE] in your answer.
output: > 100 µM (inactive)

input: # return recorded GI50 for input COc1ccc(C2c3c[nH]nc3CC3CCCCC32)cc1 (configuration not stated)
output: 23.4 µM (inactive)

input: Provide GI50 value for the following molecule: N#CCCC(CC#N)N1CCN(C(CC#N)CCC#N)CC1 (configuration not stated)
output: > 100 µM (inactive)

input: Recall and state the measured GI50 for CCCCCC(=O)OC[n+]1ccc(-c2c(COC(=O)NC(C)C)c(COC(=O)NC(C)C)c3n2CCC3)cc1 .
output: > 100 µM (inactive)

input: Identify the reported GI50 for the following entry. O=c1c2c(c1=O)-c1ccccc1CN2
output: > 100 µM (inactive)

input: Provide GI50 value for the following molecule: Cc1nc(-c2cccnc2)sc1C(=O)/C=C/c1ccc(Cl)cc1Cl
output: > 100 µM (inactive)

input: Please indicate GI50 recorded for COc1ccc(OC)c(CNc2ccc(O)c(C(=O)NCCc3ccc(F)cc3)c2)c1
output: 18 µM (inactive)

====

Attribute: GI50
- System: SNB-78
- protocol: NCI tumour cell line growth inhibition, 48 h
Counter-ions that a name gives are not always drawn. Activity calls are given as the source filed them. Cut-off read from the data, not from the text of the source: active = GI50 up to about 1.1 µM and inactive = higher.

* CN(C)c1n/c(=N/c2ccc3c(c2)OCO3)ss1 | 44 µM (inactive)
* C=CC1C(OC2OC(CO)C(O)C(O)C2O)OC=C(C(=O)OC)C1CC=O (stereo unspecified) | > 100 µM (inactive)
* O=C1c2cccc3cc4ccccc4c(c23)C(=O)N1CCNCCN1C(=O)c2cccc3cc4ccccc4c(c23)C1=O | 0.518 µM (active)
* COc1ccc([C@@H]2CC(=O)NCCCNCCCCNCCCN2)cc1 | > 100 µM (inactive)
* O=[N+]([O-])c1ccc(Sc2c3ccccc3nc3ccccc23)cc1 | > 100 µM (inactive)

input: Output GI50 of CC1=Nc2ccccc2NC(c2ccoc2)C1 (stereo unspecified)
output: > 100 µM (inactive)

input: Give the value of GI50 reported for the following: Nc1ccc2cc3ccc(N)cc3nc2c1 [PROFLAVINE SULFATE]
output: 1.12 µM (active)

input: Answer with reported GI50 of O=c1c2ccccc2c(=O)c2c1cc(Cl)c1[nH]c3c([nH]c12)c(Cl)cc1c(=O)c2ccccc2c(=O)c13
output: > 100 µM (inactive)

input: Fill in GI50 for record CN(C)CCCNc1ccc2ncn3c4ccccc4c(=O)c1c23
output: 14.2 µM (inactive)

input: Entry CCCCCCCCCCCCCCC(C)CCC(=O)O (stereo unspecified) needs its GI50 filled in; supply it.
output: > 100 µM (inactive)

input: Answer with the recorded GI50 for the compound listed here: CC(=O)c1cccc(NC(=O)C(=O)Nn2c(N)nnc2N)c1
output: > 100 µM (inactive)

====

In this section, each of the compounds is paired with its reported GI50.
- Test system: DMS-114
- protocol: NCI tumour cell line growth inhibition, 48 h
Activity calls are given as the source filed them. Rule as the data show it: active = GI50 up to about 1.1 µM and inactive = higher. Where a SMILES comes first, the peptide text is derived from it. [ ]: non-standard residue; d: D form. The star is where a group is joined. NMeF = CN[CH](Cc1ccccc1)C(=O)O; NMeV = CN[CH](C(=O)O)C(C)C; Boc = CC(C)(C)OC(=O)*; OBn = c1ccc(CO*)cc1

See these solved cases before continuing.
• Cc1cn(C2OC(C)(CO)C(O)C2O)c(=O)[nH]c1=O (centres undefined) = > 100 µM (inactive)
• O=C1c2ccccc2C(=O)C1(Cl)C1(S(=O)(=O)O)c2ccccc2-c2ccccc21 = > 100 µM (inactive)
• CC(C)C(NC(=O)OC(C)(C)C)C(=O)N(C)C(Cc1ccccc1)C(=O)N(C)C(C(=O)N(C)C(C(=O)OCc1ccccc1)C(C)C)C(C)C (centres undefined) (Boc-V[NMeF][NMeV][NMeV]-OBn; configuration not given here) = 62.5 µM (inactive)
• COc1ccc([C@@H]2CC(=O)NCCCNCCCCNCCCN2)cc1 = > 100 µM (inactive)

input: Please supply the value of reported GI50 for the item CC1=Nc2ccccc2NC(c2ccoc2)C1 (centres undefined)
output: > 100 µM (inactive)

input: Identify measured GI50 corresponding to Cc1cn2c(=O)c3ncn(C4OC(CO)C(O)C4O)c3n(C)c2n1 (centres undefined)
output: > 100 µM (inactive)

====

- Tested on: OVCAR-5
- protocol: NCI tumour cell line growth inhibition, 48 h
Activity calls are given as the source filed them. Rule as the data show it: active = GI50 up to about 1.1 µM and inactive = higher.
Below: a set of entries, each annotated with reported GI50.

- COC(=O)[C@H](C)[C@H]1CC[C@@](C)([C@H]2CC3C(C)(C)[C@H]4CCC(C)=C[C@H]4C[C@@]3(C)O2)OO1 (some centres not stated): 13.4 µM (inactive)
- CC(=O)OC[C@@H](OC(C)=O)[C@@H](OC(C)=O)[C@H]1OC[C@@H]2C[C@H]([C@H]1OC(C)=O)N(Cc1ccccc1)O2: > 100 µM (inactive)
- COc1cc2c(cc1[N+](=O)[O-])C(=O)C(Br)(Br)CCC2: 1.91 µM (inactive)
- CC1=Nc2ccccc2NC(c2ccoc2)C1 (configuration not stated): > 100 µM (inactive)
- CCc1cc(C(=O)OC)cn1C(=N)c1ccc(Cl)cc1: > 100 µM (inactive)
- CCO/C=N/C1=C(C#N)C(c2ccc(Cl)cc2)c2c(-c3ccccc3)nn(-c3ccccc3)c2O1 (configuration not stated): 23.7 µM (inactive)

// next item, GI50 requested
input: Write down GI50 measured for item C=C(NC(=O)C(=C)NC(=O)c1csc(C2=NC3c4csc(n4)C4NC(=O)c5csc(n5)C(C(C)(O)C(C)O)NC(=O)C5CSC(=N5)/C(=C/C)NC(=O)C(C(C)O)NC(=O)c5csc(n5)C3(CC2)NC(=O)C(C)NC(=O)C(=C)NC(=O)C(C)NC(=O)C(C(C)CC)NC2C=Cc3c(C(C)O)cc(nc3C2O)C(=O)OC4C)n1)C(N)=O (configuration not stated)
output: 11.8 µM (inactive)

====

- Test system: SK-OV-3
- protocol: NCI tumour cell line growth inhibition, 48 h
The source made the active and inactive calls. Cut-off read from the data, not from the text of the source: active = GI50 up to about 1.1 µM and inactive = higher.
Reported GI50 values are given for each entry in this list.

Would you please look over these solved cases?
• COc1cc2oc(=O)ccc2cc1C(=O)CC(C)C = > 100 µM (inactive)
• Cc1nc(-c2cccnc2)sc1C(=O)/C=C/c1ccc(Cl)cc1Cl = > 100 µM (inactive)
• COC(=O)C1=CC[C@@H]2C(C(=O)O)=CO[C@@H](OC3OC(CO)C(O)C(O)C3O)[C@H]12 (stereo partly specified) = > 300 µM (inactive)
• O=Cc1ccccc1COC(=O)c1cc(C(=O)OCc2ccccc2C=O)c(C(=O)OCc2ccccc2C=O)cc1C(=O)OCc1ccccc1C=O = > 100 µM (inactive)
• Oc1ncnc2c1sc(=S)n2-c1ccccc1 = > 100 µM (inactive)
• COc1cc(NC(C)=O)ccc1C(=O)NN1C(=O)/C(=C/c2ccco2)N=C1c1ccccc1 = > 50 µM (inactive)

input: Could you please provide reported GI50 for CC(=O)C(CN(C)Cc1ccccc1)C(c1ccccc1)c1c(O)c2ccccc2oc1=O (stereo unspecified) ? Thanks!
output: > 100 µM (inactive)

input: Look up and report measured GI50 for this entry: CC1OC(OC2C(OC(=O)[C@@H]3CC(C)(C)C[C@H]4C5=CC[C@@H]6[C@@]7(C)C[C@H](O)[C@H](OC8OC(CO)C(O)C(O)C8O)[C@@](C)(CO)[C@@H]7[C@H](O)C[C@@]6(C)[C@]5(C)CC[C@@]34C)OCC(O)C2O)C(O)C(O)C1O (stereo partly specified)
output: > 7.5 µM (inactive)

input: Provide measured GI50 value, entry: N#CCc1nc(-c2cc3ccc(O)cc3oc2=O)cs1
output: 73.6 µM (inactive)

input: Answer with reported GI50 of COc1ccc(C(=O)O)c2c(=O)c3ccccc3[nH]c12
output: > 100 µM (inactive)

input: Quickly give me recorded GI50 for O=C(CCc1ccccc1)ON1C(=S)NC(c2ccccc2)(c2ccccc2)C1=S
output: 35.6 µM (inactive)
